From: the RNAGym collection of RNA variant scans (doi:10.7554/elife.80360)

B1: CPEB3 Ribozyme (parent)
chain: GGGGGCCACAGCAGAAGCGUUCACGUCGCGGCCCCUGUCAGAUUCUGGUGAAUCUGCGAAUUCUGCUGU

Variants of: B1
Assay: self-cleavage, relative activity (ratio to wild type); higher = more cleavage; co-transcriptional
measured_endpoint: self-cleavage
Just the number, please.

Any idea what its self-cleavage is? The variant is G3U A13G
0.181

Similarly, C7A U21C ?
0.266

Similarly, G14A A52U ?
0.643

Similarly, A15G C32U ?
1.02

Similarly, U38A G68C ?
0.927

Similarly, G11A U67C ?
0.996

Similarly, U20A C24U ?
0.0896

Similarly, C33A C45U ?
0.799

Similarly, U49C G68U ?
1.03

Similarly, C35U U67G ?
1.03

Similarly, G4U U55G ?
0.203

Similarly, C24G U46C ?
0.505

Similarly, A42C C45A ?
0.851

Similarly, G25A A52G ?
0.193

Similarly, C33A U53G ?
0.346

Similarly, G30U C66U ?
0.331

Similarly, G30U G65U ?
0.162

Similarly, C7G C27U ?
0.0215

Similarly, C7G A10G ?
0.671

Similarly, G19A C54A ?
0.163

Similarly, G2U A15U ?
0.0721

Similarly, G47U G56A ?
0.966
